- assayed.system: Histone acetyltransferase RTT109 (Candida albicans (strain SC5314 / ATCC MYA-2876)) (UniProt Q5AAJ8)
- Sequence (Q5AAJ8 whole entry, looked up): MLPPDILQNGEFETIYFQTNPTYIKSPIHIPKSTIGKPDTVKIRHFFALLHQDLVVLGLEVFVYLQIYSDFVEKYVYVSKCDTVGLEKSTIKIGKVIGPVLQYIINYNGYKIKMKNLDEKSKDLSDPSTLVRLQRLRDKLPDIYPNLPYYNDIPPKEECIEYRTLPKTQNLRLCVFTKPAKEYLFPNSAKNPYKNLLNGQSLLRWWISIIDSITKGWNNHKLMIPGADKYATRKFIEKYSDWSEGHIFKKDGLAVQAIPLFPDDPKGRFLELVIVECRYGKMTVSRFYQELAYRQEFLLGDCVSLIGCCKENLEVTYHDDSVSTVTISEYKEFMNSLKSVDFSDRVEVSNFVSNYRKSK
- assay: inhibitors of C. albicans Rtt109/Vps75 HAT, primary screen, biochemical, ThioGlo CoA-SH fluorescence, plate reader (AID 540336)
- settings: purified Rtt109/Vps75, ThioGlo CoA-SH fluorescence, 4 h; at 34.9 µM; hits give high values
In all, about 330,000 compounds went through this assay and about 520 (0.16%) were called active. The sample holds actives, similar compounds and a random draw of the others, so the mix is not that of the screen.
Form field: inhibition (one value per entry).
Quick reminder: number only, in %, skip the unit.

Recorded results for 2 molecules are shown here.
molecule	inhibition [%]
Cc1ccc(S(=O)(=O)N2CCC(C(=O)N3CCCCCCC3)CC2)cc1	1.29
C=CCCC(=O)N1C[C@H]2CON(C)[C@H]2C[C@H]1c1cccc(Nc2ccccc2)c1	7.97

Q: State the recorded inhibition for this entry: CCOC(=O)C1CCCN(C(=O)C2CCN(S(=O)(=O)c3ccc(Cl)c(C(F)(F)F)c3)CC2)C1 (configuration not stated)
A: 10.8

Q: State the recorded inhibition for this entry: COc1ccc(/C=C2/CCCc3ccccc3C2=O)cc1
A: -1.83

Q: State the recorded inhibition for this entry: O=C(Nc1c(Br)cc2c(c1Br)Cc1cc([N+](=O)[O-])ccc1-2)C(Cl)Cl
A: -4.04

Q: State the recorded inhibition for this entry: COc1ccc(C(CNC(=O)c2cc(S(=O)(=O)Nc3cccc(C)c3)ccc2C)N2CCCC2)cc1 (configuration not stated)
A: 22.1

* * *

Form field: inhibition (one value per entry).
- assayed.system: Histone acetyltransferase RTT109 (Candida albicans (strain SC5314 / ATCC MYA-2876))
- assay: inhibitors of C. albicans Rtt109/Vps75 HAT, primary screen, biochemical, ThioGlo CoA-SH fluorescence, plate reader (AID 540336)
- settings: purified Rtt109/Vps75, ThioGlo CoA-SH fluorescence, 4 h; at 34.9 µM; hits give high values
Hit rate of the full screen: of about 330,000 compounds, about 520 (0.16%) were called active. Only a selection was taken, and actives are over-represented in it overall.
Quick reminder: number only, in %, skip the unit.

Recorded results for 5 compounds are shown here.
compound	endpoint.unit	readout.value
O=C(O)c1ccc(Cn2cnc3c(=S)nc[nH]c32)cc1	%	0.573
COC(=O)c1ccc(CNC(=O)Cn2cc(C)c(=O)[nH]c2=O)cc1	%	-6.85
O=C(NCCCN1CCCCCC1)C1CC(=O)N(C2CCCC2)C1 (stereo unspecified)	%	32.5
NNc1cccc(C=Cc2ccccc2)cc1=O	%	9.21
COc1ccc(/C=C2\SC(=O)N(CCC(=O)NC3CCS(=O)(=O)C3)C2=O)cc1 (stereo unspecified)	%	11.3

Shift focus to the following entry.
Q: State the recorded inhibition for this entry: COc1ccc(CNCCCn2cnc3c(OCc4ccccc4)ncnc32)cc1
A: -0.493

* * *

- assayed.system: Histone acetyltransferase RTT109 (Candida albicans (strain SC5314 / ATCC MYA-2876)) (UniProt Q5AAJ8)
- assay: inhibitors of C. albicans Rtt109/Vps75 HAT, primary screen, biochemical, ThioGlo CoA-SH fluorescence, plate reader (AID 540336)
- settings: purified Rtt109/Vps75, ThioGlo CoA-SH fluorescence, 4 h; at 34.9 µM
Among all 330,000 compounds or so, about 520 (0.16%) were called active.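 The calls were made as follows: active = inhibition of at least 50% in every replicate; inconclusive = best replicate reaches 50% inhibition but some replicates fall short; inactive = the rest.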 Shown is part of a subset that was picked to be rich in actives.
Allowed answers: Y = active, N = inactive

Answered cases to consult:
molecule	class.name
Cc1ccc(SC(CC(=O)c2ccc(C(C)(C)C)cc2)C(=O)O)cc1 (centres undefined)	Y
CCSc1nc2sc3c(c2c(=O)n1-c1ccc(C)cc1)CCN(C)C3	N
CC(C=Cc1ccccc1)=NNS(=O)(=O)c1ccc([N+](=O)[O-])cc1	N

Field: next molecule
Q: Which outcome was entered for the molecule CC1(C)N=C(N)NC(Nc2ccc(Cl)cc2)=N1 in this test?
A: N

* * *

- assayed.system: Histone acetyltransferase RTT109 (Candida albicans (strain SC5314 / ATCC MYA-2876)) (UniProt Q5AAJ8)
- assay: inhibitors of C. albicans Rtt109/Vps75 HAT, primary screen, biochemical, ThioGlo CoA-SH fluorescence, plate reader (AID 540336)
- settings: purified Rtt109/Vps75, ThioGlo CoA-SH fluorescence, 4 h; at 34.9 µM; hits give high values
About 520 (0.16%) of roughly 330,000 compounds were called active. Many of the other results were omitted from the sample, so actives are more common in it than they were.
measured.attribute: inhibition (%)
Quick reminder: number only, in %, skip the unit.

compound	inhibition, %
N#CCSc1nc2c(c(=O)n1Cc1ccccc1)C1(CCCC1)Cc1ccccc1-2	8.15
CCC1([N+](=O)[O-])COC(c2ccc(C)cc2)OC1 (stereo unspecified)	-3.32
O=C(OC12CC3CC(CC(C3)C1)C2)c1ccc(NCc2cc(O)ccc2O)cc1	-1.56
COc1ccc(-n2nc3c(c2NC(=O)c2ccc(N4C(=O)CCC4=O)cc2)CSC3)cc1	57.3
CC(=O)OC1CCC2C3CCC4=C(CC(F)C(=O)C4)C3CCC12C (stereo unspecified)	-7.91
Cc1ccc(C(=O)O)c(NC=O)c1OCc1ccccc1	2.64

Q: State the recorded inhibition for this entry: CC(C)C(=O)Nc1c2c(nn1-c1ccccc1)CSC2
A: 2.65

Q: State the recorded inhibition for this entry: CC(C)c1ccc(C=NNc2ccc([N+](=O)[O-])cn2)cc1
A: 4.1

Q: State the recorded inhibition for this entry: CC(=O)Nc1c2c(nn1-c1cccc(C)c1)CSC2
A: -4.46

Q: State the recorded inhibition for this entry: CSCCC(NC(=O)COc1ccccc1)C(=O)OCc1ccc(Cl)cc1 (stereo unspecified)
A: -1.24

Q: State the recorded inhibition for this entry: Cc1cn(C2CC(O)C(CO)O2)c(=O)n(CCCc2ccccc2)c1=O (stereo unspecified)
A: 5.62

* * *

- assayed.system: Histone acetyltransferase RTT109 (Candida albicans (strain SC5314 / ATCC MYA-2876)) (UniProt Q5AAJ8)
- assay: inhibitors of C. albicans Rtt109/Vps75 HAT, primary screen, biochemical, ThioGlo CoA-SH fluorescence, plate reader (AID 540336)
- settings: purified Rtt109/Vps75, ThioGlo CoA-SH fluorescence, 4 h; at 34.9 µM; hits give high values
In all, about 330,000 compounds went through this assay and about 520 (0.16%) were called active. The sample holds actives, similar compounds and a random draw of the others, so the mix is not that of the screen.
measured.attribute: inhibition (%)
Quick reminder: number only, in %, skip the unit.

Recorded results for 10 compounds are shown here.
compound	measured.attribute	endpoint.unit	readout.value
CC(C)(C)c1nnc2sc(SCC(O)=C(C#N)c3nc4ccccc4[nH]3)nn2c1=O	inhibition	%	-1.69
CC(C)(C)C(=O)Nc1cccc(-c2ccc[nH]2)n1	inhibition	%	-1.5
COc1ccc(-c2ccc3c(c2)[C@@H]2C[C@H](N(C)S(=O)(=O)c4ccccc4)[C@H]([C@H](C)O)C(=O)N2CC3)cc1	inhibition	%	-7.44
O=C1/C(=C\c2ccc([N+](=O)[O-])cc2)CS(=O)(=O)C/C1=C/c1ccc([N+](=O)[O-])cc1	inhibition	%	-5.87
O=c1[nH]c2ccccc2n2c(-c3ccccc3)nnc12	inhibition	%	127
CCCCN(C(=O)CSCc1ccc(C)cc1)c1c(N)n(Cc2ccccc2)c(=O)[nH]c1=O	inhibition	%	-4.15
CC(=O)OC1CCC2(C)C(=CCC3C4CC(=O)N(O)C(=O)C4(C)CCC32)C1 (stereo unspecified)	inhibition	%	1.39
CN(C)C(CNC(=O)c1cc2ccccc2o1)c1ccccc1 (stereo unspecified)	inhibition	%	2.45
FC(F)(F)C1CCCN(c2nsc3ccccc23)C1 (stereo unspecified)	inhibition	%	129
CCN(CC)CCCC(C)n1c2nc(=O)[nH]c(=O)c-2nc2cc(Cl)ccc21 (stereo unspecified)	inhibition	%	1.9

Q: State the recorded inhibition for this entry: Cc1cccc(NC(=S)N2CCC(C(=O)c3ccc(F)cc3)CC2)c1
A: -3.47

Q: State the recorded inhibition for this entry: O=C(NC(Cc1ccccc1)C(=O)N1CCCC(C(F)(F)F)C1)c1ccccc1 (stereo unspecified)
A: 8.65

Q: State the recorded inhibition for this entry: COc1cc(OC)c(C(=O)NNC(=O)c2ccc(NS(=O)(=O)c3cccs3)cc2)cc1OC
A: -0.841

Q: State the recorded inhibition for this entry: CN(C(=O)CN1C(=O)/C(=C/c2ccc(Cl)cc2)SC1=S)C1CCS(=O)(=O)C1 (stereo unspecified)
A: -24.5

Q: State the recorded inhibition for this entry: O=c1[nH]n2c(-c3ccccc3)nc(O)c2c2ccccc12
A: -9.47

* * *

Form field: inhibition (one value per entry).
- assayed.system: Histone acetyltransferase RTT109 (Candida albicans (strain SC5314 / ATCC MYA-2876))
- assay: inhibitors of C. albicans Rtt109/Vps75 HAT, primary screen, biochemical, ThioGlo CoA-SH fluorescence, plate reader (AID 540336)
- settings: purified Rtt109/Vps75, ThioGlo CoA-SH fluorescence, 4 h; at 34.9 µM; hits give high values
Hit rate of the full screen: of about 330,000 compounds, about 520 (0.16%) were called active. The sample holds actives, similar compounds and a random draw of the others, so the mix is not that of the screen.

Recorded results for 5 molecules are shown here.
O=C(CCC(=O)N1CCN(S(=O)(=O)c2ccc(Cl)cc2)CC1)NCc1cccc(C(F)(F)F)c1 -0.722% (inactive)
CCNC(=S)NCC 3.05% (inactive)
O=[N+]([O-])c1ccc(COc2ccccc2CN2CCOCC2)cc1 9.55% (inactive)
Cc1nn(-c2ccc(F)cc2)c(Cl)c1/C=C(/CCC(=O)O)c1nc2ccccc2s1 3.42% (inactive)
Cc1ccc(Cn2c(C)c3cnn(CC(=O)NCCN4CCOCC4)c(=O)c3c2C)cc1 4.07% (inactive)

Q: State the recorded inhibition for this entry: COc1ccc(CCC(=O)Nc2ccc(Cl)c(S(=O)(=O)N3CCOCC3)c2)cc1OC
A: 4.5% (inactive)

Q: State the recorded inhibition for this entry: Cc1ccc(S(=O)(=O)n2oc(=O)c(C3CCCCC3)c2N)cc1
A: 0.705% (inactive)

Q: State the recorded inhibition for this entry: CC/C(=C(/c1ccccc1)c1ccc(OCC[N+](C)(C)C)cc1)c1ccccc1
A: -16.1% (inactive)

Q: State the recorded inhibition for this entry: CCN(CC)S(=O)(=O)c1cccc(NC(=O)c2ccc(S(=O)(=O)N3CCCC3)cc2)c1
A: -3.62% (inactive)

Q: State the recorded inhibition for this entry: COc1ccc(Cl)cc1C=CC=NNC(=O)c1ccncc1
A: -2.75% (inactive)
